Assay: Selectivity index, ratio of IC50 for rat L6 cells to IC50 for chloroquine-sensitive Plasmodium falciparum NF54
Assay type: toxicity
Settings: read-out: Ratio IC50
assay_readout: selectivity ratio
API doc: respond with a numeric literal and nothing else, no unit.

query: Which selectivity ratio is listed for COc1c(-c2ccc(O)c3c(OC)cc(C)cc23)c(O)cc2c1[C@@H](C)N[C@H](C)C2 ?
result: 56.8

###

Test system: Trypanosoma cruzi
Assay: Antiprotozoal activity against Trypanosoma cruzi Tulahuen C4 amastigotes infected in rat L6 cells incubated for 96 hrs by beta-galactosidase reporter gene assay
Type: functional, organism-based
assay_readout: IC50 (µM)
State just the number; it will be interpreted in µM.

query: Given the compound COc1c(-c2ccc(OC)c3c(OC)cc(C)cc23)c(O)cc2c1[C@@H](C)N[C@H](C)C2 (single isomer, unassigned; atropisomer) , what is its reported IC50?
result: 73.4

###

Test: Selectivity index, ratio of IC50 for rat L6 cells to IC50 for chloroquine and pyrimethamine-resistant erythrocytic stage of Plasmodium falciparum K1
Type: toxicity
Conditions: L6 cells, read-out: Ratio IC50
assay_readout: selectivity ratio
Just the number, please, no unit attached.

query: Look up selectivity ratio for this compound: COc1cc(O)c(-c2cc(-c3cc(-c4c(O)cc5c(c4OC)[C@H](C)N[C@H](C)C5)c4cc(C)cc(OC)c4c3O)c(O)c3c(OC)cc(C)cc23)c2c1[C@H](C)N[C@H](C)C2
result: 1000

###

Test system: Trypanosoma brucei rhodesiense
Test: Antiprotozoal activity against Trypanosoma brucei rhodesiense STIB900 trypomastigotes incubated for 72 hrs by Alamar blue staining-based fluorometric analysis
Type: functional, organism-based
assay_readout: IC50

query: Quick check: IC50 of COc1c(-c2ccc(OC)c3c(OC)cc(C)cc23)c(O)cc2c1[C@@H](C)N[C@H](C)C2 (single isomer, unassigned; atropisomer) ?
result: 9.8 µM

###

Test system: Leishmania donovani
Experiment: Antiprotozoal activity against Leishmania donovani MHOM-ET-67/L82 axenic amastigotes incubated for 72 hrs by Alamar blue staining-based fluorometric analysis
Type: functional, organism-based
assay_readout: pIC50
# pIC50: negative log10 of molar concentration; output just the value

compound	pIC50
COc1c(-c2ccc(OC)c3c(OC)cc(C)cc23)c(O)cc2c1[C@@H](C)N[C@H](C)C2	4.27

Could you now look at the following compound, please?
query: Consider the compound shown here: COc1c(-c2ccc(OC)c3c(OC)cc(C)cc23)c(O)cc2c1[C@@H](C)N[C@H](C)C2 (single isomer, unassigned; atropisomer) What is its recorded pIC50?
result: 3.77

###

# IC50 values compiled below
Test system: L6
Assay: Cytotoxicity against rat L6 cells assessed as reduction in cell viability incubated for 72 hrs by Alamar blue staining-based fluorometric analysis
Settings: Rattus norvegicus, L6, 72 h

Completed entries (count: 2):
smiles_str	measured_value
COc1cc(O)c(-c2cc(-c3cc(-c4c(O)cc5c(c4OC)[C@H](C)N[C@H](C)C5)c4cc(C)cc(OC)c4c3O)c(O)c3c(OC)cc(C)cc23)c2c1[C@H](C)N[C@H](C)C2	6 µM
COc1c(-c2ccc(O)c3c(OC)cc(C)cc23)c(O)cc2c1[C@@H](C)N[C@H](C)C2	47.7 µM

With those in mind, consider the next compound.
query: What does the record list as IC50 for COc1cc2c(c(O)c1-c1ccc(OC)c3c(OC)cc(C)cc13)[C@@H](C)N[C@H](C)C2 ?
result: > 250 µM
